assay: Clearance in dog plasma at 0.25 mg/kg, iv; type: ADME, organism-based, Canis lupus familiaris

{"columns": ["smiles-record", "clearance / mL/min/kg"],
 "data": [
  ["COc1cnc(C(=O)Nc2ccc(F)c([C@]3(C)Cn4nc(C#N)cc4C(N)=N3)c2)cn1", 6]
]}

====

These compounds were tested on Cytochrome P450 2C19 (Homo sapiens, UniProt P33261); IC50 is the recorded read-out.
Sequence (P33261 whole entry): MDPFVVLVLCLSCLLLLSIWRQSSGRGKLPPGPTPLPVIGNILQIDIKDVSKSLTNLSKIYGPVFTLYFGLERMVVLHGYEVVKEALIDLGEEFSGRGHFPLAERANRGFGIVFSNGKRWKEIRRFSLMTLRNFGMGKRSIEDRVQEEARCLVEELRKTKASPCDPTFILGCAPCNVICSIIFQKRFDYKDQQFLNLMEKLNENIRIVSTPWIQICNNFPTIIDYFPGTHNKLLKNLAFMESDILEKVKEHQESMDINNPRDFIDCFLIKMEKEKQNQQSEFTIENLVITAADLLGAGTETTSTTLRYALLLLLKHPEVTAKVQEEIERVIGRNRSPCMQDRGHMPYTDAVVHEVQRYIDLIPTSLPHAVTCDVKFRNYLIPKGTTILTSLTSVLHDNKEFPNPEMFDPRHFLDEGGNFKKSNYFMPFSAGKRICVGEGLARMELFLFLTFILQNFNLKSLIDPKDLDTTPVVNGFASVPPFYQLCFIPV

{"columns": ["smiles-record", "IC50"],
 "data": [
  ["COc1cnc(C(=O)Nc2ccc(F)c([C@]3(C)Cn4nc(C#N)cc4C(N)=N3)c2)cn1", "> 30 µM"],
  ["C[C@@]1(c2cc(NC(=O)c3ccc(C#N)cn3)ccc2F)Cn2c(C#N)cnc2C(N)=N1", "> 10 µM"]
]}

====

assay: Oral bioavailability in mouse at 2.1 mg/kg; type: ADME, organism-based; settings: in vivo

{"columns": ["smiles-record", "bioavailability"],
 "data": [
  ["COc1cnc(C(=O)Nc2ccc(F)c([C@]3(C)Cn4nc(C#N)cc4C(N)=N3)c2)cn1", "> 100%"]
]}

====

assay: AUC (0 to last) in rat at 2.3 mg/kg, po; format: ADME, organism-based; design: time 0 - last, route oral, dose 2.3 mg/kg; conditions: in vivo
assay-metric: AUClast (ng·h/mL)

{"columns": ["smiles-record", "value-unit", "recorded-result"],
 "data": [
  ["COc1cnc(C(=O)Nc2ccc(F)c([C@]3(C)Cn4nc(C#N)cc4C(N)=N3)c2)cn1", "ng·h/mL", 1170]
]}

====

Each entry below carries its recorded IC50.
biological target: Cytochrome P450 3A4 (Homo sapiens, UniProt P08684); test: Inhibition of human CYP3A4 using midazolam as substrate by fluorescence plate reader analysis; type: ADME
Sequence (P08684 whole entry): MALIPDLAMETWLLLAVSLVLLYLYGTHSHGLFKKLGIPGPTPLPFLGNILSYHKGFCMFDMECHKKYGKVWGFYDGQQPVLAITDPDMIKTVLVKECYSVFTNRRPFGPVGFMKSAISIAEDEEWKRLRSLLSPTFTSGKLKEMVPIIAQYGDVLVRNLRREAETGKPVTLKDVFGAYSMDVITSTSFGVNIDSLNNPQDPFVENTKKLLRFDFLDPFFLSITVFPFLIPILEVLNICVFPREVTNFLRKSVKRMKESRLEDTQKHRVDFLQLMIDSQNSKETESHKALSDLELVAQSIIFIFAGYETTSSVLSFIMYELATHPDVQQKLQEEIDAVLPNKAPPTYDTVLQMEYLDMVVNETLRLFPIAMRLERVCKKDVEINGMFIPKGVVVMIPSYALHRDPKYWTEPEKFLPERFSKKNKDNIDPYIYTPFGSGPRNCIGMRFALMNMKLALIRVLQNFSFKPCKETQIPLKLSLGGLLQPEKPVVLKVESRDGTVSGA

{"columns": ["smiles-record", "value-unit", "value-operator", "IC50"],
 "data": [
  ["C[C@@]1(c2cc(NC(=O)c3ccc(C#N)cn3)ccc2F)Cn2c(C#N)cnc2C(N)=N1", "µM", "=", 6.7],
  ["COc1cnc(C(=O)Nc2ccc(F)c([C@]3(C)Cn4nc(C#N)cc4C(N)=N3)c2)cn1", "µM", ">", 30]
]}

====

assay: Apparent permeability across apical to basolateral side in dog MDCK-MDR1 cells at 5 uM incubated for 120 mins; type: ADME, cell-based, Canis lupus familiaris

{"columns": ["smiles-record", "Papp A→B at 2 h, 5 µM / ×10⁻⁶ cm/s"],
 "data": [
  ["COc1cnc(C(=O)Nc2ccc(F)c([C@]3(C)Cn4nc(C#N)cc4C(N)=N3)c2)cn1", 13.1]
]}

====

biological target: Cathepsin D (Homo sapiens, UniProt P07339)
Sequence (P07339 65-162 limits assumed): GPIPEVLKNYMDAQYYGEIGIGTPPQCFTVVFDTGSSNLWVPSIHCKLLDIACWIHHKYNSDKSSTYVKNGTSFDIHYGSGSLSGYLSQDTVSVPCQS
Sequence (P07339 169-412 limits assumed): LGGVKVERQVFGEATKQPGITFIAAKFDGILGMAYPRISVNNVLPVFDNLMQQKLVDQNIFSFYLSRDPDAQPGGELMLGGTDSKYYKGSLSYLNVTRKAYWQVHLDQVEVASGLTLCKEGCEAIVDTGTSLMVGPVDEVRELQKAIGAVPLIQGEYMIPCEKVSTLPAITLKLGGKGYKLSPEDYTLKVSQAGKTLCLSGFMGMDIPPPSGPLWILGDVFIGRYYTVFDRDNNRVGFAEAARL

{"columns": ["smiles-record", "IC50"],
 "data": [
  ["COc1cnc(C(=O)Nc2ccc(F)c([C@]3(C)Cn4nc(C#N)cc4C(N)=N3)c2)cn1", "> 100 µM"]
]}

====

Target: Beta-secretase 2 (Homo sapiens)
Sequence (Q9Y5Z0 whole entry): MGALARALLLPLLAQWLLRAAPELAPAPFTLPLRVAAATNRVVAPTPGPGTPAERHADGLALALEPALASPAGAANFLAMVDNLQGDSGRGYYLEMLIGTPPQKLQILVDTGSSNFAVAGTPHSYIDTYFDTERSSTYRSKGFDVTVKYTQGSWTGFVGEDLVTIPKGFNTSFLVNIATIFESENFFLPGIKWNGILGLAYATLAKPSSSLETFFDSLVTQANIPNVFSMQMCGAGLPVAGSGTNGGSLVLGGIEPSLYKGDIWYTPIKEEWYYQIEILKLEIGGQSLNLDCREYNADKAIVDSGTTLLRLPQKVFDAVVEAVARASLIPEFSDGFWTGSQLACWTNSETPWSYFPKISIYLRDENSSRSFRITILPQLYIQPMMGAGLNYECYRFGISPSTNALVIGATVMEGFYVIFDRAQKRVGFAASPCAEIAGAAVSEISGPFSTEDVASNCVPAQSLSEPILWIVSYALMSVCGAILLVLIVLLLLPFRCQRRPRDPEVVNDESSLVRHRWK
assay-metric: IC50 (nM)

{"columns": ["smiles-record", "assay-metric", "recorded-result"],
 "data": [
  ["COc1cnc(C(=O)Nc2ccc(F)c([C@]3(C)Cn4nc(C#N)cc4C(N)=N3)c2)cn1", "IC50", 11.5]
]}
